target: cAMP-dependent protein kinase (PKA) (Homo sapiens, UniProt P22694+P17612+P22612)
Experimental readout: IC50 (µM)

Lookup: IC50 / cAMP-dependent protein kinase (PKA) (Homo sapiens, UniProt P22694+P17612+P22612) / CO[C@H]1[C@@H](N(C)C(=O)c2ccc(C(=O)O)cc2)C[C@@H]2O[C@@]1(C)n1c3ccccc3c3c4c(c5c6ccccc6n2c5c31)C(=O)NC4
10

Lookup: IC50 / cAMP-dependent protein kinase (PKA) (Homo sapiens, UniProt P22694+P17612+P22612) / CO[C@H]1[C@@H](N(C)C(=O)c2cnccn2)C[C@@H]2O[C@@]1(C)n1c3ccccc3c3c4c(c5c6ccccc6n2c5c31)C(=O)NC4
0.75

1. CO[C@H]1[C@@H](N(C)C(=O)c2ccc(Cl)cc2)C[C@@H]2O[C@@]1(C)n1c3ccccc3c3c4c(c5c6ccccc6n2c5c31)C(=O)NC4
2. CO[C@H]1[C@@H](N(C)C(C)=O)C[C@@H]2O[C@@]1(C)n1c3ccccc3c3c4c(c5c6ccccc6n2c5c31)C(=O)NC4
Which of the two gives a bigger number for IC50: 1 or 2 ? Label of pick, please.
1
(1: 2.6 µM, 2: 1.5 µM)

1. CCCCC(O)CN(C)[C@H]1C[C@@H]2O[C@](C)([C@H]1OC)n1c3ccccc3c3c4c(c5c6ccccc6n2c5c31)C(=O)NC4 (stereo partly drawn)
2. CO[C@H]1[C@@H](N(C)C(=O)CCC(=O)O)C[C@@H]2O[C@@]1(C)n1c3ccccc3c3c4c(c5c6ccccc6n2c5c31)C(=O)NC4
Which of the two gives a bigger number for IC50: 1 or 2 ? Label of pick, please.
2
(2: 0.7 µM, 1: 0.36 µM)

1. CO[C@H]1[C@@H](N(C)C(=O)c2ccccc2Cl)C[C@@H]2O[C@@]1(C)n1c3ccccc3c3c4c(c5c6ccccc6n2c5c31)C(=O)NC4
2. CO[C@H]1[C@@H](N(C)C(=O)CN)C[C@@H]2O[C@@]1(C)n1c3ccccc3c3c4c(c5c6ccccc6n2c5c31)C(=O)NC4
Select the item whose IC50 value is smaller, choosing between 1 and 2 . Label of pick, please.
2
